B1: 6YSE (parent)
chain: HERALMVNRLQKLTRMLRVHPDPKWKQEQQELIKRLK

- Variants of: B1
- assay.protocol: folding stability dG (cDNA display proteolysis); higher = more stable
- condition.context: PBS, room temperature
assay.readout: folding stability dG

Worked examples follow.
H20K 1.57 kcal/mol
K24Y 1.13 kcal/mol
R18Y 0.492 kcal/mol
K24N 0.982 kcal/mol
W25L 1.97 kcal/mol

[ask] Give its folding stability dG value. Item: `L5Y`
[reply] 1.23 kcal/mol

[ask] Entry `V7S` please
[reply] 0.086 kcal/mol

[ask] Entry `H1Y` please
[reply] 1.59 kcal/mol

[ask] Entry `V19T` please
[reply] 1.37 kcal/mol

[ask] Entry `P23L` please
[reply] 0.804 kcal/mol
